Test system: SW 480 human large intestine cell line
Assay: Growth inhibition test (MTT) for cytotoxic properties on tumour cell lines
Type: cell-based
Details: SW480 cells, growth checked after day 6, read-out: IC50 of the cytotoxic action on tumour cell lines, SW480
Description: A: Growth Inhibition Test for the Determination of the Cytotoxic Properties on Various Tumour Cell Lines […]
*1 amine or outer side, *2 acyl side, *3 side chain or, on linkers, in order; H or OH if unused. Where a SMILES comes first, the peptide text is derived from it. [ ]: non-standard residue; d: D form. The star is where a group is joined. ξ: configuration not given here. Camptothecin(20R,20-O) = CC[C@]1(O*)C(=O)OCc2c1cc1n(c2=O)Cc2cc3ccccc3nc2-1; X4 = CO[C@H]1[C@H](O)[C@@H](Oc2ccc(NC(=S)*)cc2)O[C@@H](C)[C@H]1O; X6 = CO[C@@H]1[C@H](O)[C@H](Oc2ccc(NC(=S)*)cc2)O[C@H](C)[C@@H]1O; X1 = CO[C@H]1[C@@H](O)[C@@H](C)OC(Oc2ccc(NC(=S)*)cc2)[C@H]1O; X2 = CC[C@@]1(O*)C(=O)OCc2c1cc1n(c2=O)Cc2cc3ccccc3nc2-1; X3 = CO[C@H]1[C@@H](O)[C@@H](C)OC(Oc2ccc(N*)cc2)[C@H]1O; Ile(3ξ) = CCC(C)[C@H](N)C(=O)O; CO = O=C([*:1])[*:2]; ξP = O=C(O)C1CCCN1
outcome measure: log10(IC50) (log10 of the value in nM)
Parameter value (number): base-10 log of IC50 in nM.

Recorded log10(IC50), per entry:
[[record]]
compound = "CC[C@@]1(OC(=O)[C@H](NC(=O)[C@@H](CSC)NC(=O)[C@@H](CC(C)C)NC(=O)CNC(=O)[C@H](CC(C)C)NC(=O)[C@H]2CCCN2C(=S)Nc2ccc(OC3O[C@H](C)[C@H](O)[C@H](OC)[C@@H]3O)cc2)C(C)C)C(=O)OCc2c1cc1n(c2=O)Cc2cc3ccccc3nc2-1 (stereo partly drawn) [Example 8] (X1-[dP]LG[dL][dC](Me)[dV]-X2)"
endpoint_value = 1.70

[[record]]
compound = "CCC(C)[C@H](NC(=O)[C@H](CC(C)C)NC(=O)CNC(=O)[C@H](CC(C)C)NC(=O)[C@@H]1CCCN1C(=S)Nc1ccc(O[C@H]2O[C@@H](C)[C@@H](O)[C@@H](OC)[C@@H]2O)cc1)C(=O)N[C@H](C(=O)O[C@]1(CC)C(=O)OCc2c1cc1n(c2=O)Cc2cc3ccccc3nc2-1)C(C)C (stereo partly shown) [Example 18] (X4-PLGL[Ile(3ξ)]V-X2)"
endpoint_value = 2.00

[[record]]
compound = "CC[C@@]1(OC(=O)[C@@H](NC(=O)[C@@H](C)NC(=O)[C@H](CC(C)C)NC(=O)CNC(=O)[C@H](CC(C)C)NC(=O)[C@@H]2CCCN2C(=S)Nc2ccc(O[C@H]3O[C@@H](C)[C@@H](O)[C@@H](OC)[C@@H]3O)cc2)C(C)C)C(=O)OCc2c1cc1n(c2=O)Cc2cc3ccccc3nc2-1 [Example 14] (X4-PLGL[dA]V-X2)"
endpoint_value = 2.85

[[record]]
compound = "CC[C@]1(OC(=O)[C@H](NC(=O)[C@@H](CC(N)=O)NC(=O)[C@@H](CC(C)C)NC(=O)CNC(=O)[C@H](CC(C)C)NC(=O)C2CCCN2C(=O)CNC(=S)Nc2ccc(O[C@@H]3O[C@H](C)[C@H](O)[C@H](OC)[C@@H]3O)cc2)C(C)C)C(=O)OCc2c1cc1n(c2=O)Cc2cc3ccccc3nc2-1 (stereo partly drawn) [Example 27] (X6-G[ξP]LG[dL][dN][dV]-{Camptothecin(20R,20-O)})"
endpoint_value = 1.40

[[record]]
compound = "CC[C@@]1(OC(=O)[C@H](NC(=O)[C@@H](Cc2c[nH]cn2)NC(=O)[C@@H](CC(C)C)NC(=O)CNC(=O)[C@H](CC(C)C)NC(=O)[C@H]2CCCN2C(=S)Nc2ccc(OC3O[C@H](C)[C@H](O)[C@H](OC)[C@@H]3O)cc2)C(C)C)C(=O)OCc2c1cc1n(c2=O)Cc2cc3ccccc3nc2-1 (stereo partly drawn) [Example 13] (X1-[dP]LG[dL][dH][dV]-X2)"
endpoint_value = 2.00

[[record]]
compound = "CC[C@@]1(OC(=O)[C@H](NC(=O)[C@@H](Cc2c[nH]cn2)NC(=O)[C@@H](CC(C)C)NC(=O)CNC(=O)[C@H](CC(C)C)NC(=O)[C@H]2CCCN2C(=O)Nc2ccc(OC3O[C@H](C)[C@H](O)[C@H](OC)[C@@H]3O)cc2)C(C)C)C(=O)OCc2c1cc1n(c2=O)Cc2cc3ccccc3nc2-1.Cl (stereo partly drawn) [Example 4] ({X3-CO}-[dP]LG[dL][dH][dV]-X2)"
endpoint_value = 1.70


Would you kindly look at the next entry?
Just so you know, measured log10(IC50) for CC[C@@]1(OC(=O)[C@@H](NC(=O)[C@@H](NC(=O)[C@H](CC(C)C)NC(=O)CNC(=O)[C@H](CC(C)C)NC(=O)[C@@H]2CCCN2C(=S)Nc2ccc(O[C@H]3O[C@@H](C)[C@@H](O)[C@@H](OC)[C@@H]3O)cc2)C(C)C)C(C)C)C(=O)OCc2c1cc1n(c2=O)Cc2cc3ccccc3nc2-1 [Example 15] (X4-PLGLVV-X2) came out at 1.90

---

Tested on: HT29 human large intestine cell line
Assay: Growth inhibition test (MTT) for cytotoxic properties on tumour cell lines
Format: cell-based
Conditions: HT29 cells, growth checked after day 6, read-out: IC50 of the cytotoxic action on tumour cell lines, HT29
Where a SMILES comes first, the peptide text is derived from it. [ ]: non-standard residue; d: D form. The star is where a group is joined. ξ: configuration not given here. Camptothecin(20R,20-O) = CC[C@]1(O*)C(=O)OCc2c1cc1n(c2=O)Cc2cc3ccccc3nc2-1; X5 = C[C@H]1O[C@@H](Oc2ccc(NC(=S)*)cc2)[C@@H](O)[C@@H](OCC(N)=O)[C@H]1O; X1 = CO[C@H]1[C@@H](O)[C@@H](C)OC(Oc2ccc(NC(=S)*)cc2)[C@H]1O; X7 = OC[C@H]1OC(Oc2ccc(NC(=S)*)cc2)[C@@H](O)[C@@H](O)[C@H]1O; X2 = CC[C@@]1(O*)C(=O)OCc2c1cc1n(c2=O)Cc2cc3ccccc3nc2-1; ξV = CC(C)C(N)C(=O)O; ξP = O=C(O)C1CCCN1
outcome measure: pIC50
Answer as the number alone; pIC50 is minus log10 of concentration in mol/L.

Recorded pIC50, per entry:
[[record]]
molecule = "CC[C@@]1(OC(=O)[C@H](NC(=O)[C@@H](Cc2c[nH]cn2)NC(=O)[C@@H](CC(C)C)NC(=O)CNC(=O)[C@H](CC(C)C)NC(=O)[C@H]2CCCN2C(=S)Nc2ccc(OC3O[C@H](C)[C@H](O)[C@H](OC)[C@@H]3O)cc2)C(C)C)C(=O)OCc2c1cc1n(c2=O)Cc2cc3ccccc3nc2-1 (stereo partly drawn) [Example 13] (X1-[dP]LG[dL][dH][dV]-X2)"
endpoint_value = 7.15

[[record]]
molecule = "CC[C@@]1(OC(=O)[C@H](NC(=O)[C@@H](CC(N)=O)NC(=O)[C@@H](CC(C)C)NC(=O)CNC(=O)[C@H](CC(C)C)NC(=O)[C@H]2CCCN2C(=S)Nc2ccc(OC3O[C@H](CO)[C@H](O)[C@H](O)[C@@H]3O)cc2)C(C)C)C(=O)OCc2c1cc1n(c2=O)Cc2cc3ccccc3nc2-1 (stereo partly drawn) [Example 24] (X7-[dP]LG[dL][dN][dV]-X2)"
endpoint_value = 7.00


Would you kindly look at the next entry?
Just so you know, measured pIC50 for CC[C@]1(OC(=O)C(NC(=O)[C@@H](CC(N)=O)NC(=O)[C@@H](CC(C)C)NC(=O)CNC(=O)[C@H](CC(C)C)NC(=O)C2CCCN2C(=S)Nc2ccc(O[C@@H]3O[C@H](C)[C@H](O)[C@H](OCC(N)=O)[C@@H]3O)cc2)C(C)C)C(=O)OCc2c1cc1n(c2=O)Cc2cc3ccccc3nc2-1 (stereo partly drawn) [Example 26] (X5-[ξP]LG[dL][dN][ξV]-{Camptothecin(20R,20-O)}) came out at 7.05

---

Tested on: HT29 human large intestine cell line
Test: Growth inhibition test (MTT) for cytotoxic properties on tumour cell lines
Assay type: cell-based
Conditions: HT29 cells, growth checked after day 6, read-out: IC50 of the cytotoxic action on tumour cell lines, HT29
outcome measure: IC50 (nM)
Just the number in nM, nothing appended.

Just so you know, measured IC50 for CC[C@@]1(OC(=O)[C@H](NC(=O)[C@@H](Cc2c[nH]cn2)NC(=O)CNC(=O)[C@H](CC(C)C)NC(=O)[C@H]2CCCN2C(=S)Nc2ccc(OC3O[C@H](C)[C@H](O)[C@H](OC)[C@@H]3O)cc2)C(C)C)C(=O)OCc2c1cc1n(c2=O)Cc2cc3ccccc3nc2-1 (stereo partly shown) came out at 70

Taken from patent US20020173452A1.
